Tested on: Es-2
Assay: Primary qHTS to identify gynecologic anti-cancer compounds using libraries of approved drugs and bioactive compounds (AID 1345084); note: % is set by controls: 0 for no effect and ±100 for the full control effect; nearly all actives have a fitted effect of over 55% in size
Conditions: Gynecologic cancer cell panel viability, ATPlite luminescence, 48 h; series mostly up to 57.5 µM
Records with an inconclusive call do not appear. The source made the active and inactive calls. Calls come from the whole dose curve; as a rule, active = well fitted cell-killing curve with a large enough effect; inconclusive = small, poorly fitted or top-dose-only effect, or effect the other way; inactive = flat fitted curve, though single readings scatter.
Value Type: activity change, negative = cytotoxicity

Solved entries (count: 5):
Compound	activity change, negative = cytotoxicity
COc1c(C)c(C(=O)c2ccc(N)c(C(=O)O)c2)n2ccccc12	inactive
CC(=O)OC[C@@]12[C@H](O)C[C@]3(C)C(=CCC4[C@@]5(C)CC[C@H](O[C@@H]6O[C@H](C(=O)O)[C@@H](O[C@@H]7O[C@H](CO)[C@@H](O)[C@H](O)[C@H]7O)[C@H](O)[C@H]6O[C@@H]6O[C@H](CO)[C@@H](O)[C@H](O)[C@H]6O)[C@](C)(CO)C5CC[C@]43C)[C@@H]1CC(C)(C)[C@@H](OC(C)=O)[C@@H]2O (stereo partly specified)	3.37% [at 11.6 µM] (inactive)
COC1=Cc2c(nc3n(c2=O)C(C)C(=O)NC3(O)C(C)C)OC=C1 (stereo unspecified)	inactive
CC(=O)[C@@H]1CC[C@]2(C(=O)O)CC[C@]3(C)C(CCC4[C@@]5(C)CC[C@H](O)C(C)(C)C5CC[C@]43C)C12 (stereo partly specified)	inactive
COC1=CC(=O)C[C@@H](C)[C@]12Oc1cc(OC)cc(OC)c1C2=O	inactive

Qu. Any idea what its activity change, negative = cytotoxicity is? The compound is CC1(C)NC2N(C1=O)c1ccccc1C2(O)CC(C(=O)O)n1cnc2ccccc2c1=O (stereo unspecified)
Ans. inactive

Qu. Any idea what its activity change, negative = cytotoxicity is? The compound is CCC(=O)NS(=O)(=O)c1ccc(-c2c(-c3ccccc3)noc2C)cc1
Ans. inactive

Qu. Any idea what its activity change, negative = cytotoxicity is? The compound is C=C1CCC(OC(C)=O)C2(C)CC3(O)OC(=O)C(C)=C3CC12 (stereo unspecified)
Ans. inactive

Qu. Any idea what its activity change, negative = cytotoxicity is? The compound is COC(=O)[C@]12C(=O)C(C)=C(O)[C@@]1(C)C(C)=CC1[C@@]34CC[C@@H](OC(C)=O)C(C)(C)C3[C@H](C[C@]12C)OC4=O (stereo partly specified)
Ans. inactive

---

Test system: CRL-7250
Assay: Cytotoxic Profiling of Annotated Libraries Using Quantitative High-Throughput Screening (AID 1296008); note: % is set by controls: 0 for no effect and ±100 for the full control effect; nearly all actives have a fitted effect of over 60% in size
Details: Five cell lines viability, CellTiter-Glo ATP luminescence, 48-72 h; stronger effect = lower value
Records with an inconclusive call do not appear.
I'd be grateful if you could share measured max response for these entries.
# output: bare number, implied unit %

Qu. Any idea what its max response is? The compound is C=C1CC[C@@H]2[C@](C)(CC[C@H](O)[C@@]2(C)CCC=C(C)C)[C@@H]1Cc1c[nH]c2ccccc12
Ans. -8.3

Qu. Any idea what its max response is? The compound is CN1Cc2c(N)cccc2C(c2ccccc2)C1 (stereo not drawn)
Ans. -1.42

Qu. Any idea what its max response is? The compound is C(#Cc1cccc(CN2CCOCC2)c1)CCN1CCCCC1
Ans. -3.48

Qu. Any idea what its max response is? The compound is CC1CCCC2OC2C(=O)c2c(O)cc(O)cc2CC(=O)O1 (stereo not drawn)
Ans. -0.57

Qu. Any idea what its max response is? The compound is OC[C@H]1O[C@@H](Oc2cc(O)cc(-c3cc4ccc(O)cc4o3)c2)[C@H](O)[C@@H](O)[C@@H]1O
Ans. 0.0775

Qu. Any idea what its max response is? The compound is CC/C=C/CC1=C(CCCCCCCC(=O)O)CCC1=O
Ans. 0.164

Qu. Any idea what its max response is? The compound is NC1CCC(N[C@@H]2C[C@H]2c2ccccc2)CC1 (stereo partly drawn)
Ans. 1.1

Qu. Any idea what its max response is? The compound is C/C=C(\C)C(=O)OC[C@H]1O[C@H](O[C@H]2O[C@H](CO)[C@@H](OC(=O)/C(C)=C/C)[C@H](O)[C@H]2O[C@@H]2O[C@H](CO)[C@@H](O)[C@H](O)[C@H]2O)[C@H](O[C@@H]2O[C@H](CO)[C@@H](O)[C@H](O)[C@H]2O)[C@@H](O)[C@@H]1O
Ans. -3.07

---

System: PA-1
Experiment: Primary qHTS to identify gynecologic anti-cancer compounds using libraries of approved drugs and bioactive compounds (AID 1345084); note: % is set by controls: 0 for no effect and ±100 for the full control effect; nearly all actives have a fitted effect of over 55% in size
Conditions: Gynecologic cancer cell panel viability, ATPlite luminescence, 48 h; series mostly up to 57.5 µM
Inconclusive results are not listed. Active and inactive are the calls of the source. Calls follow the shape of the dose curve; as a rule, active = well fitted cell-killing curve with a large enough effect; inconclusive = small, poorly fitted or top-dose-only effect, or effect the other way; inactive = flat fitted curve, though single readings scatter.
Value Type: activity change, negative = cytotoxicity

Solved entries (count: 5):
Compound	activity change, negative = cytotoxicity
Cc1ncc([N+](=O)[O-])n1CC(O)CN1CCOCC1 (centres undefined)	inactive
COC(=O)[C@@]1(C)CC[C@]2(C(=O)O[C@@H]3O[C@H](CO)[C@@H](O)[C@H](O)[C@H]3O)CC[C@]3(C)C(=CCC4[C@@]5(C)CC[C@H](O[C@@H]6O[C@H](C(=O)O)[C@@H](O)[C@H](O)[C@H]6O)C(C)(C)C5CC[C@]43C)[C@@H]2C1 (some centres undefined)	-17.6% [at 11.6 µM] (inactive)
O=C(O)CCc1cccc(O[C@@H]2O[C@H](CO)[C@@H](O)[C@H](O)[C@H]2O)c1O	inactive
COc1cc(C2Oc3c(OC)cc(/C=C/C(=O)OC[C@H]4O[C@@H](OC(C)(C)C(=O)O)[C@H](O)[C@@H](O)[C@@H]4O)cc3C2CO)ccc1O (some centres undefined)	inactive
C[C@@H]1O[C@@H](O[C@H]2[C@H](O[C@H]3CO[C@@H](O[C@H]4CC[C@@]5(C)C(CC[C@]6(C)C5CC[C@]57OC[C@@]8(CC[C@](C)(CO)CC85)[C@H](O)C[C@]76C)C4(C)C)[C@H](O[C@@H]4O[C@H](CO)[C@@H](O)[C@H](O)[C@H]4O)[C@H]3O)O[C@H](CO)[C@@H](O)[C@@H]2O)[C@H](O)[C@H](O)[C@H]1O (some centres undefined)	4.72% [at 11.6 µM] (inactive)

Kindly review the next compound as well.
Qu. Any idea what its activity change, negative = cytotoxicity is? The compound is CCc1c(CC(N)=O)c2cc(OCCCP(=O)(O)O)ccc2n1Cc1ccccc1
Ans. inactive

---

Assay: Cytotoxicity counterscreen for NFkB agonists and antagonists (AID 624476);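 note: cells exposed to compound for 48 hours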
Details: NFkB reporter cell line viability counterscreen; series mostly up to 46.1 µM
Results filed as inconclusive are left out. Active and inactive are the calls of the source. Calls follow the shape of the dose curve; as a rule, active = well fitted curve in the direction sought with a large enough effect; inconclusive = small, poorly fitted or top-dose-only effect, or another doubt; inactive = no such curve, though single readings can be large or run the other way.
Outcomes you can answer with include only these: active, inactive

Qu. Call for entry CCCCCCCCCCCCCCCCCCOP(=O)([O-])OC1CC[N+](C)(C)CC1 :
Ans. inactive

Qu. Call for entry O=C(O)CC/C=C\CC[C@H]1[C@@H](N2CCCCC2)[C@@H](O)C[C@@H]1OCc1ccc(-c2ccccc2)cc1 :
Ans. inactive

Qu. Call for entry CCOc1cc2ncc(C#N)c(Nc3ccc(OCc4ccccn4)c(Cl)c3)c2cc1NC(=O)/C=C/CN(C)C :
Ans. active

Qu. Call for entry CCC1(Cc2ccc(N)cc2)CCC(=O)NC1=O (stereo unspecified) :
Ans. inactive

Qu. Call for entry C[C@@H]1CCN(C(=O)CC#N)C[C@@H]1N(C)c1ncnc2[nH]ccc12 :
Ans. inactive

Qu. Call for entry NC(=O)Nc1cc(-c2ccc(CN3CCOCC3)c(F)c2)sc1C(=O)N[C@H]1CCCNC1 :
Ans. active

---

Experiment: qHTS profiling for inhibitors of Plasmodium falciparum (3D7) proliferation (AID 743322);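 note: infected erythrocytes exposed to compound for 72 h before lysis; 100% = DMSO vehicle wells and 0% = 0.29 µM artemisinin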
Conditions: P. falciparum 3D7 proliferation; at 28.7 µM (top of the series) unless noted
Non-standard residues stand in square brackets, D forms with d. Residues, ends and D or L forms follow the SMILES beside them. Orn = NCCC[C@H](N)C(=O)O
Value Type: remaining parasite growth % (stronger effect = lower value) (%)
# output: bare number, implied unit %

Qu. Any idea what its remaining parasite growth % (stronger effect = lower value) is? The compound is CNC1CCN(C(Cc2cccc(-c3ccncc3)c2)C(=O)c2sc3c(F)ccc(F)c3c2Cl)CC1 (stereo not given)
Ans. 0.218

Qu. Any idea what its remaining parasite growth % (stronger effect = lower value) is? The compound is C[C@@H]1CCN(C(=O)CC#N)C[C@@H]1N(C)c1ncnc2[nH]ccc12
Ans. 95.6

Qu. Any idea what its remaining parasite growth % (stronger effect = lower value) is? The compound is CC(C)C[C@@H]1NC(=O)[C@H](CCCN)NC(=O)[C@H](C(C)C)NC(=O)[C@@H]2CCCN2C(=O)[C@@H](Cc2ccccc2)NC(=O)[C@H](CC(C)C)NC(=O)[C@H](CCCN)NC(=O)[C@H](C(C)C)NC(=O)[C@@H]2CCCN2C(=O)[C@@H](Cc2ccccc2)NC1=O (cyclo(V[Orn]L[dF]PV[Orn]L[dF]P))
Ans. -2.61

Qu. Any idea what its remaining parasite growth % (stronger effect = lower value) is? The compound is Cc1nnc(C(C)C)n1C1CC2CCC(C1)N2CC[C@H](NC(=O)C1CCC(F)(F)CC1)c1ccccc1 (stereo not given in full)
Ans. 111

Qu. Any idea what its remaining parasite growth % (stronger effect = lower value) is? The compound is CN1CCC(CN2c3ccccc3Sc3ccccc32)C1 (stereo not given)
Ans. 32.6

Qu. Any idea what its remaining parasite growth % (stronger effect = lower value) is? The compound is CC[C@@H](C(=O)O)C1CC[C@H](C)C([C@@H](C)[C@H](O)[C@H](C)C(=O)[C@H](CC)C2O[C@]3(C=C[C@@H](O)[C@]4(CC[C@@](C)(C5CC[C@](O)(CC)[C@H](C)O5)O4)O3)[C@H](C)C[C@@H]2C)O1 (stereo not given in full)
Ans. -3.05

Qu. Any idea what its remaining parasite growth % (stronger effect = lower value) is? The compound is CCC1(O)CC2CN(CCc3c([nH]c4ccccc34)[C@@](C(=O)OC)(c3cc4c(cc3OC)N(C=O)[C@H]3[C@](O)(C(=O)OC)[C@H](OC(C)=O)[C@]5(CC)C=CCN6CC[C@]43[C@@H]65)C2)C1 (stereo not given in full)
Ans. 8.01
